experiment: Anti-inflammatory agent solubility in solvents; format: physicochemical; settings: solvent in which the agent is miscible, ambient conditions
Reported metric: Solvent (anti-inflammatory agent solubility in solvents)

Smiles | Experimental value
C=CCc1ccc(O)c(OC)c1 | Ethanol
O=C(/C=C/c1ccccc1)c1ccccc1 | Ethanol
OC[C@@H](O)[C@H](O)[C@@H](O)CO | Water
Cc1c(C)c2c(c(C)c1O)CC[C@@](C)(CCC[C@H](C)CCC[C@H](C)CCCC(C)C)O2 | Ethanol
